Tested on: PPARg DBDmut:RXRa IVT, anti-PPARg (DBD mutation: PPARg1 K132A/R137A, NR concentration 270 nM, RXRa partner concentration 90 nM)
Assay: PBM binding z-score (relative to random genomic background probes); higher = stronger binding; sequences stand for … in GC…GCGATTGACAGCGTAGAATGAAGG
So I've got a bunch of sequences here, and I need their PBM binding z-score values.
Give bare numbers.

Tell me its PBM binding z-score given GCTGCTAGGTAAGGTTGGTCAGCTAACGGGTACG as the entry.
-1.12

Identify measured PBM binding z-score associated with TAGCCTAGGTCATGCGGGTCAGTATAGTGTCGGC
0.284

Provide PBM binding z-score value for the following sequence: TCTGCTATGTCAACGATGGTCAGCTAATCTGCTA
0.00527

Please give the documented PBM binding z-score of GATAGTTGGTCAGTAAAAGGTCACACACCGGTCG
0.61

Report PBM binding z-score for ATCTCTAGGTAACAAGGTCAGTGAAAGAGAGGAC
1.63

More entries:
Look up and state reported PBM binding z-score for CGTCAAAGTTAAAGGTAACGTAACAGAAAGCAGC
0.513
